Quick list: kcat per entry.
B1: glmS ribozyme (parent)
chain: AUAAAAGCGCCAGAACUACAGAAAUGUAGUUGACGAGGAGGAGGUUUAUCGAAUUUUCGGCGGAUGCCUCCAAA

- Variants of: B1
- assay: kcat; higher = faster cleavage; RNA array
- reported conditions: with glucosamine-6-phosphate
Variants at the floor of the assay were thinned out.
Report as a plain number; the unit s⁻¹ is understood.

Below: 8 variants and their reported kcat.
sequence_variant="A39C U45A" measured_number=0.0045
sequence_variant="U45G A53G" measured_number=0.0084
sequence_variant="A42G U57A" measured_number=0.000299
sequence_variant="G37C G66A" measured_number=3.43e-05
sequence_variant="A39C U47A" measured_number=0.00575
sequence_variant="A42G U54A" measured_number=0.0214
sequence_variant="U57G C71A" measured_number=3.11e-05
sequence_variant="A14U U49G A53U U69G" measured_number=6.87e-05

Input line: Find the recorded kcat belonging to G60A C70G and report it.
Output line: 1.99e-05

Input line: Find the recorded kcat belonging to C16U C61G C67A and report it.
Output line: 2.72e-05

Input line: Find the recorded kcat belonging to U45C A53U and report it.
Output line: 0.0028

Input line: Find the recorded kcat belonging to U57C C68U and report it.
Output line: 6e-05

Input line: Find the recorded kcat belonging to A39U A42C and report it.
Output line: 0.000556

Input line: Find the recorded kcat belonging to U30G A33C and report it.
Output line: 4.15e-05

Input line: Find the recorded kcat belonging to G51U C71G and report it.
Output line: 1.29e-05

Input line: Find the recorded kcat belonging to U54G G59U and report it.
Output line: 3.86e-05

Input line: Find the recorded kcat belonging to U65A and report it.
Output line: 0.0061

Input line: Find the recorded kcat belonging to G59A C68U and report it.
Output line: 1.6e-05

Input line: Find the recorded kcat belonging to G51A C70U and report it.
Output line: 1.48e-05

Input line: Find the recorded kcat belonging to C16A and report it.
Output line: 0.00334

Input line: Find the recorded kcat belonging to G60A A64G and report it.
Output line: 2.24e-05

Input line: Find the recorded kcat belonging to U30G A64G and report it.
Output line: 0.00607

Input line: Find the recorded kcat belonging to A14U A15G G43A and report it.
Output line: 1.46e-05

Input line: Find the recorded kcat belonging to C11U C16A and report it.
Output line: 0.000174

Input line: Find the recorded kcat belonging to A48G C70A and report it.
Output line: 4.63e-05

Input line: Find the recorded kcat belonging to A14C C68U and report it.
Output line: 0.000506

Input line: Find the recorded kcat belonging to A14G A15U C68G and report it.
Output line: 8.39e-05

Input line: Find the recorded kcat belonging to C61A C68G and report it.
Output line: 1.96e-05

Input line: Find the recorded kcat belonging to U46G U65A C71U and report it.
Output line: 0.00287

Input line: Find the recorded kcat belonging to A14C A48C and report it.
Output line: 5.79e-05

Input line: Find the recorded kcat belonging to A48C C68U and report it.
Output line: 8.75e-05

Input line: Find the recorded kcat belonging to A39U C68G and report it.
Output line: 0.000151

Input line: Find the recorded kcat belonging to A6U C70G and report it.
Output line: 3.01e-05

Input line: Find the recorded kcat belonging to A15C C58A and report it.
Output line: 0.000185

Input line: Find the recorded kcat belonging to U46C A48C and report it.
Output line: 0.000204

Origin of the recorded values: the supplement of paper PMC7125110
